B1: VDR (parent)
chain: LIKFQVGLKKLNLHEEEHVLLMAI

# Variants of: B1
# experimentDescription: protein stability index of a GFP-peptide fusion (GPS, HEK-293T) (PSI 1-6); higher = more stable;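 further: lentivirally expressed fusions sorted by FACS into six bins by GFP to DsRed ratio, PSI derived from sequencing read proportions per bin multiplied by bin number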
# conditionDetails: c terminus: a fixed tail appended
readout: protein stability index
A bare number is all that is needed in reply.

{"columns": ["variantString", "valueReported"],
 "data": [
  ["N12S", 2.5],
  ["I2L", 3.02],
  ["A23E", 2.23],
  ["I24Q", 2.48],
  ["L11E", 3.86]
]}

Please report the recorded protein stability index for `H14I` . 2.28

Please report the recorded protein stability index for `M22E` . 1.15

Please report the recorded protein stability index for `Q5D` . 4.34

Please report the recorded protein stability index for `I24C` . 3.08

Please report the recorded protein stability index for `V6F` . 3.19

Please report the recorded protein stability index for `H18K` . 3.13

Please report the recorded protein stability index for `V6K` . 2.01

Please report the recorded protein stability index for `H18E` . 2.33

Please report the recorded protein stability index for `L11S` . 2.29

Please report the recorded protein stability index for `L8P` . 2.31

Please report the recorded protein stability index for `L21K` . 3.43

Where do the numbers come from? From the supplement of paper PMC10567573.
